Experiment: Binding affinity to benzodiazepine receptor in rat brain
Type: tissue-based
Value kind: Ki

                molecular_string  reported_result
0  N#Cc1cc(F)cc(C#Cc2csc(F)n2)c1          > 10 µM

###

Target: Histamine H3 receptor (Homo sapiens, UniProt Q9Y5N1)
Sequence (Q9Y5N1 whole entry): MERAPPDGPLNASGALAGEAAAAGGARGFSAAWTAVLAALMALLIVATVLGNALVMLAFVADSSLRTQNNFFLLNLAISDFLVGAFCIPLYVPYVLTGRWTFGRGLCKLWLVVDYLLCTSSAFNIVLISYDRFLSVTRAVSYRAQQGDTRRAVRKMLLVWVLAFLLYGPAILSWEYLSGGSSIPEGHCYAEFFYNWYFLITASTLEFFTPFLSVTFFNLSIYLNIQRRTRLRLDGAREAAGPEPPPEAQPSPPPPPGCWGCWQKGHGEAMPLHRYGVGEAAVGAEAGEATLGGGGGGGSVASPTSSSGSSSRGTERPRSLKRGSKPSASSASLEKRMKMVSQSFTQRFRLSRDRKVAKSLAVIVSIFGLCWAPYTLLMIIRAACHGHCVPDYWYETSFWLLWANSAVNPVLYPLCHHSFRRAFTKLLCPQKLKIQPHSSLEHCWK
Value kind: Ki

>>> df
                molecular_string  reported_result
0  N#Cc1cc(F)cc(C#Cc2csc(F)n2)c1          > 10 µM

###

Molecular target: UniProt O00222
Sequence (O00222 whole entry): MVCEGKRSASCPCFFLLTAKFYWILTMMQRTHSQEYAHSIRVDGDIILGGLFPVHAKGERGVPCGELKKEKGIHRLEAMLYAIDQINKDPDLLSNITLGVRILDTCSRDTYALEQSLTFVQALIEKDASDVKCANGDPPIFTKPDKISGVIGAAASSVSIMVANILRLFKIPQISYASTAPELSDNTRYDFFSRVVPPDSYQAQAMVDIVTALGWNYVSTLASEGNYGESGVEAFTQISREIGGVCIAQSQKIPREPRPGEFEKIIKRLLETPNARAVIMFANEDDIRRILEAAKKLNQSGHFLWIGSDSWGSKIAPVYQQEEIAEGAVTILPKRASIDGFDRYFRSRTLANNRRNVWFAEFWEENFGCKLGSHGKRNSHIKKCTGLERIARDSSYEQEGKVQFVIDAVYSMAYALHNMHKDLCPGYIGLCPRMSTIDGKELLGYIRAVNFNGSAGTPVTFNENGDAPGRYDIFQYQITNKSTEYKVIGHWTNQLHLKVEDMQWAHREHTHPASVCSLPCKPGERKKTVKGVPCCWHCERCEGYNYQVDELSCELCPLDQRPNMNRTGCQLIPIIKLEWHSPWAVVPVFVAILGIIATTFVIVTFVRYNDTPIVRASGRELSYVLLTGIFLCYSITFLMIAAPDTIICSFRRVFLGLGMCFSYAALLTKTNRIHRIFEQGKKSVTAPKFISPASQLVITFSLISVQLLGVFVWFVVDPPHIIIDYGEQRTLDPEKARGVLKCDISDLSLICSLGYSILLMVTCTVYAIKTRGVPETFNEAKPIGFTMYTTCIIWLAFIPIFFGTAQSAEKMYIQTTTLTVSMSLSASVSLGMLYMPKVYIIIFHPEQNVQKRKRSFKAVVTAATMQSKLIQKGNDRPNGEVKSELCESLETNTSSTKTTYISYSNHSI
Value kind: Ki

In [3]: df
Out[3]:
                molecular_string     test_system  value_kind  reported_result
0  N#Cc1cc(F)cc(C#Cc2csc(F)n2)c1  UniProt O00222          Ki          > 10 µM
